TARGET OR TEST SYSTEM: T1, cynomolgus monkey IL-33 expressed with a C-terminal hexahistidine tag (cynomolgus monkey)
T1 construct: also called MfIL-33-6His; Mf-IL-33-6His
T1 chain: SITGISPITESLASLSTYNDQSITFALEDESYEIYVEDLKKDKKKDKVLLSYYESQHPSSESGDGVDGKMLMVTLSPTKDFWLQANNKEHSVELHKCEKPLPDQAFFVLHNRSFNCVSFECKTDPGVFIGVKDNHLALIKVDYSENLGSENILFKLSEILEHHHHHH
PROTOCOL: SPR 25C pH7.4, mAb captured
pKd: −log10 of the molar value.
READOUT KIND: pKd

INSERT INTO assay_data (binder, data_value) VALUES
  ('H4H9667P (antibody, human IgG4, V domains shown, Human IgG4 Fc (H4H)) VH: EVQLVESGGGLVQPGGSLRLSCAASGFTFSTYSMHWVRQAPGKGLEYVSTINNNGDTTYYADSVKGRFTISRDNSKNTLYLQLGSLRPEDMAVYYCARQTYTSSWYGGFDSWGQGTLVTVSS VL: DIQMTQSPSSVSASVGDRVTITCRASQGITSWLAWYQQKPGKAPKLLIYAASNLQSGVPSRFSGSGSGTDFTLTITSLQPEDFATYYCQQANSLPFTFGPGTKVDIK', 8.54);
